- System: Streptococcus pyogenes
- assay protocol: Antibacterial activity against Streptococcus pyogenes by broth micro-dilution method
- Format: functional

{"smiles code": "O=C(COc1cc2cc(c1)Oc1cc(c([N+](=O)[O-])cc1[N+](=O)[O-])Oc1cc(OCC(=O)Nc3nc4ccccc4s3)cc(c1)Oc1cc(c([N+](=O)[O-])cc1[N+](=O)[O-])O2)Nc1nc2ccccc2s1", "MIC": "50 µg/mL"}
{"smiles code": "CC1(C)S[C@@H]2[C@H](NC(=O)[C@H](N)c3ccccc3)C(=O)N2[C@H]1C(=O)O", "MIC": "10 µg/mL"}
{"smiles code": "O=[N+]([O-])c1cc([N+](=O)[O-])c2cc1Oc1cc(cc(OS(=O)(=O)c3cccc4ccccc34)c1)Oc1cc(c([N+](=O)[O-])cc1[N+](=O)[O-])Oc1cc(cc(OS(=O)(=O)c3cccc4ccccc34)c1)O2", "MIC": "12.5 µg/mL"}
